# System: 5-HT3 receptor (Cavia porcellus)
# Protocol Summary: Tested for the antagonistic activity against 5-hydroxytryptamine 3 receptor from guinea pig ileum
# Parameters: concentration or dose not given beside the values
# Condition Parameters: concentration not given here
Readout Name: inhibition (%)
Return type: number; implicit unit %.

Below, 5 compounds whose answers are already recorded.
{"Smiles Entry": "CN1CCN(c2nc3ccccc3nc2C#N)CC1", "Experimental Target": "5-HT3 receptor (Cavia porcellus)", "Val": 48.4}
{"Smiles Entry": "N#Cc1nc2ccccc2nc1N1CCN(c2ccc(F)cc2)CC1", "Experimental Target": "5-HT3 receptor (Cavia porcellus)", "Val": 21.4}
{"Smiles Entry": "COc1ccccc1N1CCN(c2nc3ccccc3nc2C#N)CC1", "Experimental Target": "5-HT3 receptor (Cavia porcellus)", "Val": 10.6}
{"Smiles Entry": "CCCN1CCN(c2nc3ccccc3nc2C#N)CC1", "Experimental Target": "5-HT3 receptor (Cavia porcellus)", "Val": 63.3}
{"Smiles Entry": "CCCCN1CCN(c2nc3ccccc3nc2C#N)CC1", "Experimental Target": "5-HT3 receptor (Cavia porcellus)", "Val": 12.5}

### Prompt Requested field: inhibition. Item: N#Cc1nc2ccccc2nc1N1CCN(c2ccc([N+](=O)[O-])cc2)CC1
### Response 18

### Prompt Requested field: inhibition. Item: N#Cc1nc2ccccc2nc1N1CCN(c2ccc(Cl)cc2)CC1
### Response 11

### Prompt Requested field: inhibition. Item: N#Cc1nc2cc([N+](=O)[O-])ccc2nc1N1CCNCC1
### Response 7.7

### Prompt Requested field: inhibition. Item: CCCCCN1CCN(c2nc3ccccc3nc2C#N)CC1
### Response 18

### Prompt Requested field: inhibition. Item: N#Cc1nc2ccccc2nc1N1CCN(Cc2ccccc2)CC1
### Response 12.4

### Prompt Requested field: inhibition. Item: N#Cc1nc2ccccc2nc1N1CCN(c2ccccc2)CC1
### Response 21.9

### Prompt Requested field: inhibition. Item: CCN1CCN(c2nc3ccc([N+](=O)[O-])cc3nc2C#N)CC1
### Response 21.3
